target: Peroxisome proliferator-activated receptor gamma (Homo sapiens, UniProt P37231)
Sequence (P37231 whole entry): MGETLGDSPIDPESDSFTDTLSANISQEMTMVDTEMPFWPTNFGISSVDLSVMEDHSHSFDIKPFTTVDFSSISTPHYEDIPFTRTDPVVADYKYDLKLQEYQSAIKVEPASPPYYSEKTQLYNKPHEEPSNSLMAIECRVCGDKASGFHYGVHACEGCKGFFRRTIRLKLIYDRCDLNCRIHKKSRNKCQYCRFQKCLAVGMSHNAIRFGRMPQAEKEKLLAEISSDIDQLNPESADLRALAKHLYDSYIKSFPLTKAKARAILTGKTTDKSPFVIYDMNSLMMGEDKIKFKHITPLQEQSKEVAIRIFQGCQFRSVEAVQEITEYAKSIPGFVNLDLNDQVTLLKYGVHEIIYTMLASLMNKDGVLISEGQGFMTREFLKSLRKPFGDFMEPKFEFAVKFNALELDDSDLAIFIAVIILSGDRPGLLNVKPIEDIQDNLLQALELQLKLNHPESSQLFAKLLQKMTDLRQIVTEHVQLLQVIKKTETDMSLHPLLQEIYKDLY
REPORTED_PROPERTY: log10 EC50 (log10 of the value in nM)
The figures below represent log10 of EC50, where EC50 is stated in nM.

Worked examples follow.
CCOC(Cc1ccc(OCCN(C)C2c3ccccc3CCc3ccccc32)cc1)C(=O)O (stereo not given); 3.23
CCOC(Cc1ccc(OCCC2c3ccccc3Oc3ccccc32)cc1)C(=O)O (stereo not given); 2.66
CCOC(Cc1ccc(OCCNC2=Nc3ccccc3Sc3ccccc32)cc1)C(=O)O (stereo not given); 3.99

Consider the compound CCOC(Cc1ccc(OCCn2c3ccccc3c3ccncc32)cc1)C(=O)O (stereo not given) and give its measured log10 EC50.
1.96

Could you do the same for CCOC(Cc1ccc(OCC=C2c3ccccc3CCc3ccccc32)cc1)C(=O)O (stereo not given) , please?
4.10

CCO[C@@H](Cc1ccc(OCCn2c3ccccc3c3ccncc32)cc1)C(=O)O , same question.
1.04

Entry to check: CCOC(Cc1ccc(OCCC2Sc3ccccc3Oc3ccccc32)cc1)C(=O)O (stereo not given)
3.57

Similarly, CCOC(Cc1ccc(OCC=C2c3ccccc3OCOc3ccccc32)cc1)C(=O)O (stereo not given) ?
3.53

Also CCO[C@@H](Cc1ccc(OCCn2c3ccccc3c3cc(Br)ccc32)cc1)C(=O)O ?
2.52

Next compound up: CCO[C@@H](Cc1ccc(OCCN2c3ccccc3Oc3ccccc32)cc1)C(=O)O
2.76

----------
assay: Oral half life was reported; format: ADME, organism-based; details: in vivo
Property: half-life; scope: individual compounds
Number in min, nothing else.

CCO[C@@H](Cc1ccc(OCCn2c3ccccc3c3ccccc32)cc1)C(=O)O; 1330

Now look at this one.
Which half-life is listed for CCc1ccc(CCOc2ccc(CC3SC(=O)NC3=O)cc2)nc1 (configuration not stated) ?
228

----------
test: Area under plasma concentration time curve after oral administration at a dose 2.2 mg/kg in rat; format: ADME, organism-based; design: dose 2.2 mg/kg, route oral
REPORTED_PROPERTY: AUC (ng·h/mL)
# value in ng·h/mL; strip the unit string

What does the record list as AUC for CCO[C@@H](Cc1ccc(OCCn2c3ccccc3c3ccncc32)cc1)C(=O)O ?
1330

----------
test: Oral half life was reported in rat; assay type: ADME, organism-based; details: in vivo
REPORTED_PROPERTY: half-life (h)
Unit h implied. Number only.

Request the reported half-life associated with CCO[C@@H](Cc1ccc(OCCn2c3ccccc3c3ccncc32)cc1)C(=O)O
2.7

Value source: ChEMBL document CHEMBL1135600
